This collection of values is drawn from ChEMBL document CHEMBL5030551.

Experiment: Inhibition of recombinant Plasmodium falciparum FLN expressed in Escherichia coli BL21 using Dabcyl-HKRHSFRMRG-EDANS as substrate incubated for 10 mins by fluorecence assay
reported.endpoint: IC50

Example entries begin here.
• CC1=C(C(=O)Nc2ccccc2C)[C@H](c2ccc3c(c2)OCO3)n2ncnc2N1 = > 25 µM
• Cc1c(C(=O)NCCc2nc3ccccc3[nH]2)oc2c1ccc1ccccc12 = > 25 µM
• O=c1/c(=C/c2ccc(/C=c3\sc4nc5ccccc5n4c3=O)cc2)sc2nc3ccccc3n12 = > 25 µM
• O=C(c1ccc2c3c(cccc13)CC2)[C@H]1CCCN(Cc2cc(=O)[nH]c(=O)[nH]2)C1 = > 25 µM

I have 4 compounds here; please give me IC50 for each one.
1. O=C1Oc2ccccc2C(=O)Oc2ccccc2C(=O)Oc2ccccc2C(=O)Oc2ccccc21
2. O=C(Nc1nc2ccccc2[nH]1)c1cc(-c2ccccn2)nc2ccccc12
3. CC(=O)n1cc([C@H]2CC(=O)OC3=C2C(=O)c2ccccc23)c2ccccc21
4. O=C(NN1C(=O)c2cccc3cccc(c23)C1=O)NN1C(=O)c2cccc3cccc(c23)C1=O

Out:
1: > 25 µM; 2: > 25 µM; 3: 11 µM; 4: > 25 µM
